The measured values listed here are drawn from ChEMBL document CHEMBL2163315.

assay: Cytotoxicity against human hepatoma cells after 3 days by MTS assay; assay type: cell-based
As shown below, each of these molecules has a reported CC50 at 72 h value.

Incoming: Data request, read-out CC50 at 72 h, for CCC(O)(CC)[C@H]1C[C@@H](Nc2nc(NCC3CC3)nc(C)c2-c2nc3c(C)nccc3s2)[C@H](O)[C@@H]1O
Outgoing: > 6 µM

Incoming: Name the recorded CC50 at 72 h for CSCCNc1nc(C)c(-c2nc3c(C)nccc3s2)c(N[C@@H]2C[C@H](C(C)(C)O)[C@@H](O)[C@H]2O)n1 .
Outgoing: > 25 µM

Incoming: # lookup: CC50 at 72 h of Cc1nc(NCC2CC2)nc(N[C@@H]2C[C@H](C3(O)CC3)[C@@H](O)[C@H]2O)c1-c1nc2c(C)nccc2s1
Outgoing: > 25 µM

Next:
Incoming: Need CC50 at 72 h, item CCC(O)(CC)[C@H]1C[C@@H](Nc2nc(NCCOC)nc(C)c2-c2nc3c(C)nccc3s2)[C@H](O)[C@@H]1O
Outgoing: > 25 µM

====

experiment: Oral bioavailability in cynomolgus monkey at 3 mg/kg; assay type: ADME, organism-based, Macaca fascicularis; details: in vivo
PROPERTY LABEL: bioavailability (%)
Lab book: enter the figure in %, no units written.

Answered cases to consult:
Incoming: What value of measured bioavailability is listed for COC[C@@H](C)Nc1nc(C)c(-c2nc3c(C)nccc3s2)c(N[C@@H]2C[C@H](C(C)(C)O)[C@@H](O)[C@H]2O)n1 ?
Outgoing: 50

Incoming: So what's the measured bioavailability for this one? COCCNc1nc(C)c(-c2nc3c(C)nccc3s2)c(N[C@@H]2C[C@H](C(C)(C)O)[C@@H](O)[C@H]2O)n1
Outgoing: 46

Incoming: Recorded bioavailability of CO[C@H](C)CNc1nc(C)c(-c2nc3c(C)nccc3s2)c(N[C@@H]2C[C@H](C(C)(C)O)[C@@H](O)[C@H]2O)n1 , please.
Outgoing: 45

Incoming: bioavailability for Cc1nc(NCC2CC2)nc(N[C@@H]2C[C@H](C(C)(C)O)[C@@H](O)[C@H]2O)c1-c1nc2c(C)nccc2s1 ?
Outgoing: 6

Next up:
Incoming: Reported bioavailability, compound Cc1nc(N[C@H](C)C2CC2)nc(N[C@@H]2C[C@H](C(C)(C)O)[C@@H](O)[C@H]2O)c1-c1nc2c(C)nccc2s1 : ____
Outgoing: 4

====

system: Hepatitis C virus; assay: Antiviral activity against Hepatitis C virus genotype 1b Con1 infected in human hepatoma cells assessed as inhibition of viral RNA replication by subgenomic replicon assay; format: functional, organism-based, Hepacivirus hominis; details: genotype 1b Con 1
Labelling: EC50 reported below 8 nM becomes label 1; at or above becomes label 0.

Below, 6 compounds whose answers are already recorded.
Incoming: State whether 8 nM exceeds EC50 recorded for COCCNc1nc(C)c(-c2nc3c(C)nccc3s2)c(N[C@@H]2C[C@H](C3(O)CC3)[C@@H](O)[C@H]2O)n1 .
Outgoing: label 1

Incoming: Say whether its EC50 is strictly beneath 8 nM. Entry: CCC(O)(CC)[C@H]1C[C@@H](Nc2nc(NCC3CC3)nc(C)c2-c2nc3c(C)nccc3s2)[C@H](O)[C@@H]1O
Outgoing: label 1

Incoming: Is it true that EC50 reported for Cc1nc(NCC2CCCCO2)nc(N[C@@H]2C[C@H](C(C)(C)O)[C@@H](O)[C@H]2O)c1-c1nc2c(C)nccc2s1 (stereo not given in full) is less than 8 nM?
Outgoing: label 1

Incoming: Please determine if Cc1nc(NCc2c(F)cc(F)cc2F)nc(N[C@@H]2C[C@H](C(C)(C)O)[C@@H](O)[C@H]2O)c1-c1nc2c(C)nccc2s1 is below 8 nM in terms of EC50.
Outgoing: label 1

Incoming: For this compound, is EC50 lower than 8 nM? Cc1nc(N[C@H](C)c2ccc(OC(F)(F)F)cc2)nc(N[C@@H]2C[C@H](C(C)(C)O)[C@@H](O)[C@H]2O)c1-c1nc2c(C)nccc2s1
Outgoing: label 0

Incoming: Could you please tell me whether EC50 recorded for COCC(O)(COC)[C@H]1C[C@@H](Nc2nc(NCC3CC3)nc(C)c2-c2nc3c(C)nccc3s2)[C@H](O)[C@@H]1O is less than 8 nM?
Outgoing: label 1

Consider now this further compound.
Incoming: Please indicate whether the reported EC50 of Cc1nc(NCCN(C)C)nc(N[C@@H]2C[C@H](C(C)(C)O)[C@@H](O)[C@H]2O)c1-c1nc2c(C)nccc2s1 is strictly below 8 nM.
Outgoing: label 0

====

test: Cytotoxicity against human hepatoma cells after 3 days by MTS assay; assay type: cell-based
Measured CC50 at 72 h values are reported for all entries that follow.

Incoming: Can you share its CC50 at 72 h? I mean this molecule: Cc1nc(NCCN2CCOCC2)nc(N[C@@H]2C[C@H](C(C)(C)O)[C@@H](O)[C@H]2O)c1-c1nc2c(C)nccc2s1
Outgoing: > 25 µM

Incoming: Find the recorded CC50 at 72 h belonging to COCCNc1nc(C)c(-c2nc3cnccc3s2)c(N[C@@H]2C[C@H](C(C)(C)O)[C@@H](O)[C@H]2O)n1 and report it.
Outgoing: > 25 µM

Incoming: What does the record list as CC50 at 72 h for Cc1nc(N[C@H](C)C2CC2)nc(N[C@@H]2C[C@H](C(C)(C)O)[C@@H](O)[C@H]2O)c1-c1nc2cnccc2s1 ?
Outgoing: 25 µM

Incoming: # get_value(readout='CC50 at 72 h', item= Cc1nc(NCC2CC2)nc(N[C@@H]2C[C@H](C(C)(C)O)[C@@H](O)[C@H]2O)c1-c1nc2cnccc2s1.Cl )
Outgoing: > 12 µM

Incoming: So what's the measured CC50 at 72 h for this one? Cc1nc(N(C)CC2CC2)nc(N[C@@H]2C[C@H](C(C)(C)O)[C@@H](O)[C@H]2O)c1-c1nc2c(C)nccc2s1
Outgoing: 23 µM

Incoming: Please report the recorded CC50 at 72 h for Cc1nc(NCc2c(F)cc(F)cc2F)nc(N[C@@H]2C[C@H](C(C)(C)O)[C@@H](O)[C@H]2O)c1-c1nc2c(C)nccc2s1 .
Outgoing: > 25 µM

Field: next molecule
Incoming: So what's the measured CC50 at 72 h for this one? COCCNc1nc(C)c(-c2nc3c(C)nccc3s2)c(N[C@@H]2C[C@H](C(C)(C)O)[C@@H](O)[C@H]2O)n1
Outgoing: > 25 µM

====

test: AUC (0 to 24 hrs) in rat at 10 mg/kg, po; format: ADME, organism-based; design: time < 24 hr, dose 10 mg/kg, route oral; details: plasma
PROPERTY LABEL: AUC(0-t) at 24 h (µM·h)
Give the value, in units of µM·h, as a plain number.

Incoming: Look up AUC(0-t) at 24 h: COCCNc1nc(C)c(-c2nc3c(C)nccc3s2)c(N[C@@H]2C[C@H](C(C)(C)O)[C@@H](O)[C@H]2O)n1
Outgoing: 16

Incoming: // lookup AUC(0-t) at 24 h for COC[C@@H](C)Nc1nc(C)c(-c2nc3c(C)nccc3s2)c(N[C@@H]2C[C@H](C(C)(C)O)[C@@H](O)[C@H]2O)n1
Outgoing: 18

Incoming: Reported AUC(0-t) at 24 h, compound CO[C@H](C)CNc1nc(C)c(-c2nc3c(C)nccc3s2)c(N[C@@H]2C[C@H](C(C)(C)O)[C@@H](O)[C@H]2O)n1 : ____
Outgoing: 6.7

Incoming: I have this compound here, Cc1nc(NCC2CC2)nc(N[C@@H]2C[C@H](C(C)(C)O)[C@@H](O)[C@H]2O)c1-c1nc2c(C)nccc2s1 , and I need its recorded AUC(0-t) at 24 h.
Outgoing: 10

Attention now turns to another entry.
Incoming: # query: AUC(0-t) at 24 h of entry Cc1nc(N[C@H](C)C2CC2)nc(N[C@@H]2C[C@H](C(C)(C)O)[C@@H](O)[C@H]2O)c1-c1nc2c(C)nccc2s1
Outgoing: 19

====

assay: Cytotoxicity against human hepatoma cells assessed as effect on cellular GAPDH RNA level; assay type: cell-based
Listing: CC50 of selected molecules

Please review the entries below; each comes with its answer.
Incoming: Entry under review: Cc1nc(N(C)CC2CC2)nc(N[C@@H]2C[C@H](C(C)(C)O)[C@@H](O)[C@H]2O)c1-c1nc2c(C)nccc2s1 . Reported CC50?
Outgoing: > 25 µM

Incoming: // lookup CC50 for Cc1nc(N[C@H](C)C2CC2)nc(N[C@@H]2C[C@H](C(C)(C)O)[C@@H](O)[C@H]2O)c1-c1nc2cnccc2s1
Outgoing: > 25 µM

Incoming: // returns reported CC50 for input Cc1nc(N[C@H](C)C2CC2)nc(N[C@@H]2C[C@H](C(C)(C)O)[C@@H](O)[C@H]2O)c1-c1nc2c(C)nccc2s1
Outgoing: > 25 µM

Incoming: Which CC50 is listed for Cc1nc(N)nc(N[C@@H]2C[C@H](C(C)(C)O)[C@@H](O)[C@H]2O)c1-c1nc2c(C)nccc2s1 ?
Outgoing: 4 µM

Incoming: Please look up its CC50: Cc1nc(NCC2CCCCO2)nc(N[C@@H]2C[C@H](C(C)(C)O)[C@@H](O)[C@H]2O)c1-c1nc2c(C)nccc2s1 (some centres not stated)
Outgoing: > 25 µM

---
Incoming: // lookup CC50 for COCCNc1nc(C)c(-c2nc3c(C)nccc3s2)c(N[C@@H]2C[C@H](C3(O)CC3)[C@@H](O)[C@H]2O)n1
Outgoing: > 25 µM

Incoming: # input molecule: CSCCNc1nc(C)c(-c2nc3c(C)nccc3s2)c(N[C@@H]2C[C@H](C(C)(C)O)[C@@H](O)[C@H]2O)n1 ; wanted: its CC50
Outgoing: > 25 µM
